Origin of the recorded values: patent US8962596B2

biological target: JAK1 (Homo sapiens, UniProt P23458)
Sequence (P23458 whole entry): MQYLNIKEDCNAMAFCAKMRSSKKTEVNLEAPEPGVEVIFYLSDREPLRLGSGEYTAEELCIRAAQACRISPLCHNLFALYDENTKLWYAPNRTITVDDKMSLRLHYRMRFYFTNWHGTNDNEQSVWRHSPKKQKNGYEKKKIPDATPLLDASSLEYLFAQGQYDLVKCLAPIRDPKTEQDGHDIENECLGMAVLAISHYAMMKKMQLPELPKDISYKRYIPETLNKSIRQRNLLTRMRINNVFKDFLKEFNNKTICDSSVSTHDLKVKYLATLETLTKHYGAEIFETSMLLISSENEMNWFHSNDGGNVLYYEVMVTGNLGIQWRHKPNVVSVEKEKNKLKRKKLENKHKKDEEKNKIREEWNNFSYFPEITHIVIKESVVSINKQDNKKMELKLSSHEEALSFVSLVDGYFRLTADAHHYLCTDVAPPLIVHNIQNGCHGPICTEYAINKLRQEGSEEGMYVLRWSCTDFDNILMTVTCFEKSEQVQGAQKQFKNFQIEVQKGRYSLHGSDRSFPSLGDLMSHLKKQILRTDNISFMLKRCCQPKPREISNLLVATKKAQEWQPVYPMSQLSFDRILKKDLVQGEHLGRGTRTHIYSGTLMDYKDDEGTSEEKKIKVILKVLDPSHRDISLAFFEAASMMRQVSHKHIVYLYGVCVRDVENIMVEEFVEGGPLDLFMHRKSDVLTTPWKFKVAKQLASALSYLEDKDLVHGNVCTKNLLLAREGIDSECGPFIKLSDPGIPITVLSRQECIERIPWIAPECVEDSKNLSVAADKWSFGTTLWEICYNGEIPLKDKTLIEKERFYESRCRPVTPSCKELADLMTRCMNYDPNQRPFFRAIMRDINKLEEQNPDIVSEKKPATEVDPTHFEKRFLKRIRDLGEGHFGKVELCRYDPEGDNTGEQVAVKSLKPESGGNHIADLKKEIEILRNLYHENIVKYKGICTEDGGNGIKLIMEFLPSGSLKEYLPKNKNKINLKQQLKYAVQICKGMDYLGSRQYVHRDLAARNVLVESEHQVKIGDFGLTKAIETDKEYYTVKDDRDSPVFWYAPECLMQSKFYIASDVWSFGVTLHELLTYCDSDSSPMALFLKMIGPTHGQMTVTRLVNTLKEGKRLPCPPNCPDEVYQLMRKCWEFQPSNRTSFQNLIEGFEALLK
Structures can show the parent of a compound that is named as a salt.
Value Kind: IC50

Example cases with answers are listed next.
Cn1cc(-c2cc3nccn3c(-c3ccn(C4(CC#N)CN(CC(F)(F)F)C4)n3)n2)cn1 [Example 131] :: > 1000 nM
Cn1cc(-c2cc3nccn3c(-c3cnn(C4(CC#N)CN(C(=O)CC(F)(F)F)C4)c3)n2)cn1 [Example 64] :: 100 to 1000 nM
Cn1cc(-c2cc3nccn3c(-c3cnn(C4(CC#N)CN(CCC(F)(F)F)C4)c3)n2)cn1 [Example 86] :: 100 to 1000 nM
CC(=O)N1CCC(C(CC#N)n2cc(-c3nc(-c4cnn(C)c4)cc4nccn34)cn2)CC1 (stereo not shown) [Example 27] :: 100 to 1000 nM
Cn1cc(-c2cc3nccn3c(-c3cnn(C(CC#N)C4CCCC4)c3)n2)cn1 (stereo not shown) [Example 17] :: 10 to 100 nM
COc1ncc(-c2cc3nccn3c(-c3cnn(C4(CC#N)CN(S(=O)(=O)C5CC5)C4)c3)n2)cn1 [Example 141] :: > 1000 nM

Enquiry: # get_value(readout='IC50', item= Cn1cc(-c2cc3nccn3c(-c3cnn(C(CC#N)c4ccccc4Cl)c3)n2)cn1 (stereo not shown) [Example 12] )
Return: 10 to 100 nM

Enquiry: Now the molecule Cn1cc(-c2cc3nccn3c(-c3cnn(C4(CC#N)CCCC4)c3)n2)cn1 [Example 23]
Return: 100 to 1000 nM

Enquiry: Another molecule to check: Cn1cc(-c2cc3nccn3c(-c3cnn(C4(CC#N)CN(C5COC5)C4)c3)n2)cn1 [Example 67]
Return: > 1000 nM

Enquiry: Let us now turn to Cn1cc(-c2cc3nccn3c(-c3ccn(C4(CC#N)CNC4)c3)n2)cn1 [Example 127, trifluoroacetate]
Return: 100 to 1000 nM
